# maps each entry to its growth inhibition
assay: NCI Yeast Anticancer Drug Screen. Data for the mec2-1 strain (AID 157); conditions: S. cerevisiae mec2-1 strain, at 50.0 µM, hits give high values
The panel holds about 79,000 compounds, 15% with a hit somewhere; the sample as a whole holds those more often.
Reply with just the number (in %).

Below, 3 compounds whose answers are already recorded.
[in] Check the records and state growth inhibition for COc1cc2c(c(OC)c1OC)CC1c3c(cc4c(c3-2)OCO4)CCN1C (configuration not stated)
[out] -31.5

[in] Check the records and state growth inhibition for O=c1ccc(=O)[nH][nH]1.[Zn+2]
[out] 5.1

[in] Check the records and state growth inhibition for O=P(Oc1ccccc1)(N1CCCC1)N1CCCC1
[out] 18.4

Continuing:
[in] Check the records and state growth inhibition for Cc1ccc2[nH]c(=S)n(-c3cccc(C(F)(F)F)c3)c(=O)c2c1
[out] 6.35

[in] Check the records and state growth inhibition for CNN(C)P(=O)(Oc1ccccc1)N(C)NC
[out] -7.3

[in] Check the records and state growth inhibition for CCOC(=O)CC(Br)C(=O)CBr (configuration not stated)
[out] 11

[in] Check the records and state growth inhibition for S=P1(c2ccccc2)C=C(N2CCCC2)CC1 (configuration not stated)
[out] 20.2

###

assay: NCI Yeast Anticancer Drug Screen. Data for the cln2 rad14 strain (AID 165);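 also: 0% = growth equal to vehicle treated cultures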; settings: S. cerevisiae cln2 rad14 strain, at 50.0 µM, hits give high values
The panel holds about 79,000 compounds, 15% with a hit somewhere; the sample as a whole holds those more often.
# maps each entry to its growth inhibition
Reply with just the number (in %).

[in] Check the records and state growth inhibition for CC(C)[C@@H]1ON1C(C)c1ccccc1 (some centres not stated)
[out] 11.6

[in] Check the records and state growth inhibition for Cc1cc(=O)oc2cc(OC(=O)N(C)C)c(Cl)cc12
[out] 24.4

###

assay: NCI Yeast Anticancer Drug Screen. Data for the rad50 strain (AID 155);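 also: 0% = growth of vehicle-only cultures of the same strain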; conditions: S. cerevisiae rad50 strain growth inhibition; at 50.0 µM; hits give high values
About 79,000 compounds went through this panel and 15% of them were active in at least one assay; those are over-represented in the sample as a whole.
Label TRUE when growth inhibition >= -20%; otherwise FALSE.

[in] Could you verify whether the entry CCCCCCCBr shows growth inhibition of no less than -20%?
[out] FALSE

[in] Could you verify whether the entry CN1C(c2cccnc2)=NCC12CCCC2 shows growth inhibition of no less than -20%?
[out] TRUE

[in] Could you verify whether the entry O=C1NC(=O)C(CCO)(c2ccccc2)C(=O)N1 shows growth inhibition of no less than -20%?
[out] FALSE

[in] Could you verify whether the entry O=C1C=CC2(C=C1)CCN=c1c(O)c3c(c(O)c12)=NC=N3 shows growth inhibition of no less than -20%?
[out] TRUE

[in] Could you verify whether the entry C[CH2][Pb]([Br])([CH2]C)[CH2]C shows growth inhibition of no less than -20%?
[out] TRUE

[in] Could you verify whether the entry Cc1ccc(N)cc1 shows growth inhibition of no less than -20%?
[out] TRUE

[in] Could you verify whether the entry COC(=O)C(O)(c1ccccc1)C1CCCC1 (stereo not drawn) shows growth inhibition of no less than -20%?
[out] TRUE

[in] Could you verify whether the entry CN1C2CCC1CC1(C2)SCCS1 shows growth inhibition of no less than -20%?
[out] TRUE
